test-system: cathepsin L (Homo sapiens, UniProt P07711)
Sequence (P07711 114-333, species assumed): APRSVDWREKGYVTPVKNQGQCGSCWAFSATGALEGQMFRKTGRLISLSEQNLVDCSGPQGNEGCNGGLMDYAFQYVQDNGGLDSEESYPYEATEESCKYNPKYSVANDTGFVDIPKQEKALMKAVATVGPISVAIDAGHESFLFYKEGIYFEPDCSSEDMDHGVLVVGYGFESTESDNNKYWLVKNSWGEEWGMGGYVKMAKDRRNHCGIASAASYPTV
protocol-description: Inhibitory activity assay against cathepsin L (enzyme assay)
Assay type: biochemical
measurement-conditions: Z-Phe-Arg-AMC 2 μM, enzyme 3 nM, pH 5.5, 30 minutes
Experimental: In order to measure the enzyme activity of cathepsin L, a buffer solution (pH 5.5) consisting of 50 mM MES, 2.5 mM DTT, 2.5 mM EDTA, 0.005% Polysorbate 20, and 10% DMSO was prepared. […] After reacting the mixture of substrate, test material, and enzyme for 30 minutes, the enzyme activity was measured with the EnVision (Perkin Elmer) microplate reader at an absorption wavelength of 340 nm and an emission wavelength of 460 nm. […]
result-type: IC50

chemical-string	result-type	readout-value
N#Cc1nccc(C2(NC(=O)Nc3cc(C(F)(F)F)ccc3C(=O)O)CCCCC2)n1	IC50	> 10000 nM
N#Cc1nccc(C2(NC(=O)Nc3ccc4c(c3)OCO4)CCCC2)n1	IC50	> 10000 nM
CC(=O)NCc1ccc(-c2ccc(NC(=O)NC3(c4ccnc(C#N)n4)CCCCC3)cc2F)cc1	IC50	> 10000 nM
N#Cc1nccc(C2(NC(=O)Nc3ccc(-c4ccc(CCC(=O)O)cc4)cc3)CCCCC2)n1	IC50	> 10000 nM
N#Cc1nccc(C2(NC(=O)NCc3ccccc3)CCCCC2)n1	IC50	7140 nM

----------
test-system: cathepsin K (Homo sapiens, UniProt P43235)
Sequence (P43235 115-329, species assumed): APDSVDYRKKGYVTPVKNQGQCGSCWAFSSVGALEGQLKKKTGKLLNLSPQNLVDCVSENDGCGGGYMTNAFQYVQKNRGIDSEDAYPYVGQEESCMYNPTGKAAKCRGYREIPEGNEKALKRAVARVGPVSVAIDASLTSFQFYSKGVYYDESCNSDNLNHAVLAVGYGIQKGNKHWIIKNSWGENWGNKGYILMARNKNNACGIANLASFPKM
protocol-description: Inhibitory activity assay against cathepsin K (enzyme assay)
Type: biochemical
measurement-conditions: Z-Phe-Arg-AMC 10 μM, enzyme 1 nM, pH 5.5, 30 minutes
Protocol: In order to measure the enzyme activity of cathepsin K, a buffer solution (pH 5.5) consisting of 50 mM 2-(N-morpholino)ethanesulfonic acid (MES), 2 mM dithiothreitol (DTT), 2.5 mM ethylenediaminetetraacetic acid (EDTA), 0.01% Triton X-100, and 10% dimethyl sulfoxide (DMSO) was prepared. The substrate, the test material, and the enzyme were mixed in the buffer solution in a predetermined concentration. […] IC50 values were determined using 4-parameter logistic curve fit program of GraphPad Prism.
Entries get a class label from measured IC50. See ranges: group 1 = under 10 nM, group 2 = from 10 nM up to 40 nM, group 3 = 40 nM and over

molecule	class
N#Cc1nccc(C2(NC(=O)Nc3cccc4ccccc34)CCCC2)n1	group 2
N#Cc1nccc(C2(NC(=O)Nc3ccc(-c4ccc(C(=O)NCC5CCCO5)cc4)cc3)CCCCC2)n1 (stereo not shown)	group 1
N#Cc1nccc(C2(NC(=O)Nc3ccc(-c4ccc(C(=O)NCCn5ccnc5)cc4)c(F)c3)CCCCC2)n1	group 1
N#Cc1nccc(C2(NC(=O)NCc3ccccc3C(F)(F)F)CCCCC2)n1	group 2
N#Cc1nccc(C2(NC(=O)Nc3ccc(Br)c(C(F)(F)F)c3)CCCCC2)n1	group 3
N#Cc1nccc(C2(NC(=O)Nc3ccc(N4CCNCC4)cc3)CCCC2)n1	group 3
N#Cc1nccc(C2(NC(=O)Nc3ccc(-c4ccc(C(=O)N5CCCC5)c(Cl)c4)cc3)CCCCC2)n1	group 1
COCCNC(=O)c1ccc(-c2ccc(NC(=O)NC3(c4ccnc(C#N)n4)CCCCC3)cc2)cc1	group 1
N#Cc1nccc(C2(NC(=O)OCc3cccc(Cl)c3)CCCC2)n1	group 3
COc1ccccc1COC(=O)NC1(c2ccnc(C#N)n2)CCCCC1	group 3
N#Cc1nccc(C2(NC(=O)Nc3ccc(Cc4ccccc4)cc3)CCCCC2)n1	group 2
N#Cc1nccc(C2(NC(=O)Nc3ccc(-c4ccncc4)cc3)CCCCC2)n1	group 1
CS(=O)(=O)c1ccc(-c2ccc(NC(=O)NC3(c4ccnc(C#N)n4)CCCCC3)cc2)cc1C(F)(F)F	group 2
N#Cc1nccc(C2(NC(=O)NCc3ccoc3)CCCC2)n1	group 3
N#Cc1nccc(C2(NC(=O)Nc3cc(C(F)(F)F)cc(C(F)(F)F)c3)CCCCC2)n1	group 2
Cc1cccc(COC(=O)NC2(c3ccnc(C#N)n3)CCCC2)c1	group 3
COCCOCc1ccc(-c2ccc(NC(=O)NC3(c4ccnc(C#N)n4)CCCCC3)cc2)cc1	group 1
N#Cc1nccc(C2(NC(=O)OCc3ccc(Br)cc3)CCCC2)n1	group 2
CC(=O)Nc1ccc(-c2ccc(NC(=O)NC3(c4ccnc(C#N)n4)CCCCC3)cc2)cc1	group 1
N#Cc1nccc(C2(NC(=O)Nc3ccc(-c4ccc(F)nc4)cc3)CCCCC2)n1	group 2
Cc1cccc(NC(=O)NC2(c3ccnc(C#N)n3)CCCC2)c1	group 3
CC(C)N1CCN(c2ccc(-c3ccc(NC(=O)NC4(c5ccnc(C#N)n5)CCCCC4)cc3F)cc2)CC1	group 1
N#Cc1nccc(C2(NC(=O)Nc3ccc4nccnc4c3)CCCC2)n1	group 3
CN(C)C(=O)c1ccc(-c2ccc(NC(=O)NC3(c4ccnc(C#N)n4)CCCCC3)cc2)cc1	group 1
N#Cc1nccc(C2(NC(=O)OCc3ccccc3Cl)CCCCC2)n1	group 2
CN(C)C1CCN(c2ccc(NC(=O)NC3(c4ccnc(C#N)n4)CCCCC3)cc2)CC1	group 1
N#Cc1nccc(C2(NC(=O)Nc3cc(C(F)(F)F)ccc3F)CCCC2)n1	group 2
N#Cc1nccc(C2(NC(=O)NCc3cccc4ccccc34)CCCC2)n1	group 2
Cc1ccc(NC(=O)NC2(c3ccnc(C#N)n3)CCCC2)cc1	group 3
N#Cc1nccc(C2(NC(=O)Nc3cccc(O)c3)CCCC2)n1	group 3
CN(C)CCOc1ccc(-c2ccc(NC(=O)NC3(c4ccnc(C#N)n4)CCCCC3)cc2)cc1	group 1
CCN1CCN(c2ccc(NC(=O)NC3(c4ccnc(C#N)n4)CCCCC3)cc2)CC1	group 1
N#Cc1nccc(C2(NC(=O)Nc3ccc4c(c3)OCO4)CCCC2)n1	group 3

----------
Readings of IC50 for the listed compounds
test-system: cathepsin B (Homo sapiens)
protocol-description: Inhibitory activity assay against cathepsin B (enzyme assay)
Format: biochemical
measurement-conditions: Z-Arg-Arg-AMC 40 μM, enzyme 1 nM, pH 6.0, 90 minutes

chemical-string	test-system	IC50
N#Cc1nccc(C2(NC(=O)NCc3ccc4c(c3)OCO4)CCCC2)n1	cathepsin B (Homo sapiens)	> 10000 nM
N#Cc1nccc(C2(NC(=O)OCc3ccc(-c4ccc(F)nc4)cc3)CCCC2)n1	cathepsin B (Homo sapiens)	> 10000 nM
COc1ccc(COC(=O)NC2(c3ccnc(C#N)n3)CCCCC2)cc1	cathepsin B (Homo sapiens)	> 10000 nM
N#Cc1nccc(C2(NC(=O)OCc3ccc(-c4ccc(N5CCOCC5)cc4)cc3)CCCC2)n1	cathepsin B (Homo sapiens)	> 10000 nM

----------
test-system: cathepsin K (Homo sapiens, UniProt P43235)
protocol-description: Inhibitory activity assay against cathepsin K (enzyme assay)
Type: biochemical
measurement-conditions: Z-Phe-Arg-AMC 10 μM, enzyme 1 nM, pH 5.5, 30 minutes
result-type: IC50

chemical-string	test-system	readout-value
N#Cc1nccc(C2(NC(=O)Nc3ccc(-c4ccc(S(=O)(=O)C(F)(F)F)cc4)cc3)CCCCC2)n1	cathepsin K (Homo sapiens, UniProt P43235)	74 nM
N#Cc1nccc(C2(NC(=O)Nc3ccc4c(c3)CCC4)CCCC2)n1	cathepsin K (Homo sapiens, UniProt P43235)	54.5 nM
N#Cc1nccc(C2(NC(=O)OCc3cccc(Br)c3)CCCCC2)n1	cathepsin K (Homo sapiens, UniProt P43235)	168 nM
N#Cc1nccc(C2(NC(=O)OCc3ccccc3Br)CCCCC2)n1	cathepsin K (Homo sapiens, UniProt P43235)	18 nM
N#Cc1nccc(C2(NC(=O)Nc3ccc(F)c(C(F)(F)F)c3)CCOCC2)n1	cathepsin K (Homo sapiens, UniProt P43235)	28.2 nM
N#Cc1nccc(C2(NC(=O)OCc3ccc(Br)cc3)CCCCC2)n1	cathepsin K (Homo sapiens, UniProt P43235)	18.8 nM
N#Cc1nccc(C2(NC(=O)Nc3ccc(Nc4ccccc4)cc3)CCCCC2)n1	cathepsin K (Homo sapiens, UniProt P43235)	21.7 nM
COc1ccc(-c2ccc(NC(=O)NC3(c4ccnc(C#N)n4)CCCCC3)cc2)cn1	cathepsin K (Homo sapiens, UniProt P43235)	10.9 nM
N#Cc1nccc(C2(NC(=O)Nc3ccc(C(F)(F)F)cc3)CCCCC2)n1	cathepsin K (Homo sapiens, UniProt P43235)	68.2 nM
N#Cc1nccc(C2(NC(=O)Nc3cc(F)ccc3C(F)(F)F)CCCC2)n1	cathepsin K (Homo sapiens, UniProt P43235)	64.6 nM
N#Cc1nccc(C2(NC(=O)Nc3ccc(N4CCN(C5CC5)CC4)cc3)CCCCC2)n1	cathepsin K (Homo sapiens, UniProt P43235)	18.3 nM
N#Cc1nccc(C2(NC(=O)Nc3ccc(-c4ccc(OCCN)cc4)cc3)CCCCC2)n1	cathepsin K (Homo sapiens, UniProt P43235)	0.3 nM
COc1cccc(COC(=O)NC2(c3ccnc(C#N)n3)CCCC2)c1	cathepsin K (Homo sapiens, UniProt P43235)	179 nM
Cn1cc(-c2ccc(NC(=O)NC3(c4ccnc(C#N)n4)CCCCC3)cc2)cn1	cathepsin K (Homo sapiens, UniProt P43235)	3.9 nM
N#Cc1nccc(C2(NC(=O)NCc3ccccc3)CCCC2)n1	cathepsin K (Homo sapiens, UniProt P43235)	31.2 nM
N#Cc1nccc(C2(NC(=O)Nc3cc(C(F)(F)F)ccc3F)CCCCC2)n1	cathepsin K (Homo sapiens, UniProt P43235)	4.9 nM
N#Cc1nccc(C2(NC(=O)Nc3ccc(C(=O)O)cc3)CCCCC2)n1	cathepsin K (Homo sapiens, UniProt P43235)	111 nM
CS(=O)(=O)c1ccc(-c2cccc(COC(=O)NC3(c4ccnc(C#N)n4)CCCC3)c2)cc1	cathepsin K (Homo sapiens, UniProt P43235)	355 nM

Every entry's value here was drawn from patent US11299478B2.
